Assay: Stability test under stress conditions (PXRD, DSC, appearance, HPLC)
Conditions: stress conditions; HPLC; 4 weeks
We begin with a simple list: items and their reported Purity.
Note: unit % is implicit; provide only the numeric part.

C=CC(=O)Nc1cc(Nc2nccc(-n3cc(CN(C)C)c(-c4ccccc4)n3)n2)c(OC)cc1N1CCOCC1.O=C(O)CC(O)(CC(=O)O)C(=O)O 98.7
C=CC(=O)Nc1cc(Nc2nccc(-n3cc(CN(C)C)c(-c4ccccc4)n3)n2)c(OC)cc1N1CCOCC1.CCS(=O)(=O)O 98.9
C=CC(=O)Nc1cc(Nc2nccc(-n3cc(CN(C)C)c(-c4ccccc4)n3)n2)c(OC)cc1N1CCOCC1 99.3

IN: What does the data say about its Purity? Entry: C=CC(=O)Nc1cc(Nc2nccc(-n3cc(CN(C)C)c(-c4ccccc4)n3)n2)c(OC)cc1N1CCOCC1.Cl
OUT: 99.1

====

Details: accelerated conditions; start to 6 months
Readout name: Water content Change

Use these answered entries as a reference point.
Compound	Water content Change
C=CC(=O)Nc1cc(Nc2nccc(-n3cc(CN(C)C)c(-c4ccccc4)n3)n2)c(OC)cc1N1CCOCC1.O=C(O)CC(O)(CC(=O)O)C(=O)O [C. Ex. 3]	+2.85%
C=CC(=O)Nc1cc(Nc2nccc(-n3cc(CN(C)C)c(-c4ccccc4)n3)n2)c(OC)cc1N1CCOCC1.Cl [C. Ex. 2]	+0.42%
C=CC(=O)Nc1cc(Nc2nccc(-n3cc(CN(C)C)c(-c4ccccc4)n3)n2)c(OC)cc1N1CCOCC1 [Ex. 1]	+0.53%

Query compound follows.
IN: What does the data say about its Water content Change? Entry: C=CC(=O)Nc1cc(Nc2nccc(-n3cc(CN(C)C)c(-c4ccccc4)n3)n2)c(OC)cc1N1CCOCC1.CCS(=O)(=O)O [C. Ex. 4]
OUT: +2.02%

====

Conditions: accelerated conditions; 6 mos
We begin with a simple list: items and their reported DSC onset.
Note: unit °C is implicit; provide only the numeric part.

Compound	Unit of measure	DSC onset
C=CC(=O)Nc1cc(Nc2nccc(-n3cc(CN(C)C)c(-c4ccccc4)n3)n2)c(OC)cc1N1CCOCC1.CCS(=O)(=O)O [C. Ex. 4]	°C	218
C=CC(=O)Nc1cc(Nc2nccc(-n3cc(CN(C)C)c(-c4ccccc4)n3)n2)c(OC)cc1N1CCOCC1 [Ex. 1]	°C	214
C=CC(=O)Nc1cc(Nc2nccc(-n3cc(CN(C)C)c(-c4ccccc4)n3)n2)c(OC)cc1N1CCOCC1.Cl [C. Ex. 2]	°C	271

Query compound follows.
IN: What does the data say about its DSC onset? Entry: C=CC(=O)Nc1cc(Nc2nccc(-n3cc(CN(C)C)c(-c4ccccc4)n3)n2)c(OC)cc1N1CCOCC1.O=C(O)CC(O)(CC(=O)O)C(=O)O [C. Ex. 3]
OUT: 183

====

Settings: accelerated conditions; 6 mos
We begin with a simple list: items and their reported Water content.

Use these answered entries as a reference point.
Compound	Measured value
C=CC(=O)Nc1cc(Nc2nccc(-n3cc(CN(C)C)c(-c4ccccc4)n3)n2)c(OC)cc1N1CCOCC1.O=C(O)CC(O)(CC(=O)O)C(=O)O [C. Ex. 3]	3.50%
C=CC(=O)Nc1cc(Nc2nccc(-n3cc(CN(C)C)c(-c4ccccc4)n3)n2)c(OC)cc1N1CCOCC1 [Ex. 1]	3.01%

IN: What does the data say about its Water content? Entry: C=CC(=O)Nc1cc(Nc2nccc(-n3cc(CN(C)C)c(-c4ccccc4)n3)n2)c(OC)cc1N1CCOCC1.Cl [C. Ex. 2]
OUT: 1.28%

IN: What does the data say about its Water content? Entry: C=CC(=O)Nc1cc(Nc2nccc(-n3cc(CN(C)C)c(-c4ccccc4)n3)n2)c(OC)cc1N1CCOCC1.CCS(=O)(=O)O [C. Ex. 4]
OUT: 3.17%

====

Assay: Stability test under stress conditions (PXRD, DSC, appearance, HPLC)
Details: stress conditions; Start
Readout name: Water content (%)
Note: unit % is implicit; provide only the numeric part.

Use these answered entries as a reference point.
C=CC(=O)Nc1cc(Nc2nccc(-n3cc(CN(C)C)c(-c4ccccc4)n3)n2)c(OC)cc1N1CCOCC1 2.48
C=CC(=O)Nc1cc(Nc2nccc(-n3cc(CN(C)C)c(-c4ccccc4)n3)n2)c(OC)cc1N1CCOCC1.Cl 0.86
C=CC(=O)Nc1cc(Nc2nccc(-n3cc(CN(C)C)c(-c4ccccc4)n3)n2)c(OC)cc1N1CCOCC1.O=C(O)CC(O)(CC(=O)O)C(=O)O 0.65

Query compound follows.
IN: What does the data say about its Water content? Entry: C=CC(=O)Nc1cc(Nc2nccc(-n3cc(CN(C)C)c(-c4ccccc4)n3)n2)c(OC)cc1N1CCOCC1.CCS(=O)(=O)O
OUT: 1.15

====

Experiment: Pharmacokinetic comparison test in rats treated with esomeprazole
Format: in vivo, rats (SD rats)
Conditions: male, SD, rat, plasma, po, 30 mg/kg, Rats treated with esomeprazole (i.v. 5 mg/2 mL/kg for 3 days), oral 30 mg/5 ml/kg; read-out: Area under the plasma concentration curve (AUClast)
Readout name: AUC(0-t) (ng·h/mL)
Note: unit ng·h/mL is implicit; provide only the numeric part.

IN: What does the data say about its AUC(0-t)? Entry: C=CC(=O)Nc1cc(Nc2nccc(-n3cc(CN(C)C)c(-c4ccccc4)n3)n2)c(OC)cc1N1CCOCC1
OUT: 5210

====

Test: Stability test under stress conditions (PXRD, DSC, appearance, HPLC)
Details: stress conditions; 4 weeks
Readout name: Water content (%)
Note: unit % is implicit; provide only the numeric part.

Use these answered entries as a reference point.
Molecule	Measured value
C=CC(=O)Nc1cc(Nc2nccc(-n3cc(CN(C)C)c(-c4ccccc4)n3)n2)c(OC)cc1N1CCOCC1.CCS(=O)(=O)O [C. Ex. 4]	3.81
C=CC(=O)Nc1cc(Nc2nccc(-n3cc(CN(C)C)c(-c4ccccc4)n3)n2)c(OC)cc1N1CCOCC1.Cl [C. Ex. 2]	1.44
C=CC(=O)Nc1cc(Nc2nccc(-n3cc(CN(C)C)c(-c4ccccc4)n3)n2)c(OC)cc1N1CCOCC1 [Ex. 1]	2.70

Query molecule follows.
IN: What does the data say about its Water content? Entry: C=CC(=O)Nc1cc(Nc2nccc(-n3cc(CN(C)C)c(-c4ccccc4)n3)n2)c(OC)cc1N1CCOCC1.O=C(O)CC(O)(CC(=O)O)C(=O)O [C. Ex. 3]
OUT: 1.47

====

Conditions: accelerated conditions; HPLC; Start
Readout name: Purity (%)
Note: unit % is implicit; provide only the numeric part.

Use these answered entries as a reference point.
C=CC(=O)Nc1cc(Nc2nccc(-n3cc(CN(C)C)c(-c4ccccc4)n3)n2)c(OC)cc1N1CCOCC1.Cl 99.0
C=CC(=O)Nc1cc(Nc2nccc(-n3cc(CN(C)C)c(-c4ccccc4)n3)n2)c(OC)cc1N1CCOCC1.O=C(O)CC(O)(CC(=O)O)C(=O)O 99.2
C=CC(=O)Nc1cc(Nc2nccc(-n3cc(CN(C)C)c(-c4ccccc4)n3)n2)c(OC)cc1N1CCOCC1 99.2

Query molecule follows.
IN: What does the data say about its Purity? Entry: C=CC(=O)Nc1cc(Nc2nccc(-n3cc(CN(C)C)c(-c4ccccc4)n3)n2)c(OC)cc1N1CCOCC1.CCS(=O)(=O)O
OUT: 99.5

====

We begin with a simple list: items and their reported Content.
Details: accelerated conditions; HPLC; 6 mos
Note: unit % is implicit; provide only the numeric part.

C=CC(=O)Nc1cc(Nc2nccc(-n3cc(CN(C)C)c(-c4ccccc4)n3)n2)c(OC)cc1N1CCOCC1.Cl 97.6
C=CC(=O)Nc1cc(Nc2nccc(-n3cc(CN(C)C)c(-c4ccccc4)n3)n2)c(OC)cc1N1CCOCC1 99.1
C=CC(=O)Nc1cc(Nc2nccc(-n3cc(CN(C)C)c(-c4ccccc4)n3)n2)c(OC)cc1N1CCOCC1.O=C(O)CC(O)(CC(=O)O)C(=O)O 98.7

Query compound follows.
IN: What does the data say about its Content? Entry: C=CC(=O)Nc1cc(Nc2nccc(-n3cc(CN(C)C)c(-c4ccccc4)n3)n2)c(OC)cc1N1CCOCC1.CCS(=O)(=O)O
OUT: 91.4
